endpoint: Kd (µM)
Give the quantity in µM, number only.

Give Kd (UniProtKB P02769) of the following molecule: CCN1C(=CC2=C([N-]S(=O)(=O)c3cccc4c(N(C)C)cccc34)C(=Cc3sc4ccccc4[n+]3CC)C2=O)Sc2ccccc21
Sequence (P02769 25-607): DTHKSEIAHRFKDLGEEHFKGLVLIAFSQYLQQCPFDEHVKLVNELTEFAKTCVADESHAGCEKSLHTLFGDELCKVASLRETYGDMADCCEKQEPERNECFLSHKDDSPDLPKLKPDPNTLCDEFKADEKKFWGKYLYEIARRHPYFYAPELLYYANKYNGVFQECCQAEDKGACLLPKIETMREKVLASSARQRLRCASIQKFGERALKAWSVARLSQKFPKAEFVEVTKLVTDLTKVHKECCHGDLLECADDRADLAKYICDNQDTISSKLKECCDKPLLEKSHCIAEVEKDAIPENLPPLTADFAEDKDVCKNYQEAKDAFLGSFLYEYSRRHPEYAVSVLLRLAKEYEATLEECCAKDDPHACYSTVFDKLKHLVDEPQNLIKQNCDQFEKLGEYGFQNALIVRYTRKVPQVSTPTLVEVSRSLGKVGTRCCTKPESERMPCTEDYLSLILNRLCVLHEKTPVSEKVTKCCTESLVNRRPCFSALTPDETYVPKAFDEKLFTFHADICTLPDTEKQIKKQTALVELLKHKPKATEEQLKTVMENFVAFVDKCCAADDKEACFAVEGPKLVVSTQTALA
9.35
